- TARGET_OR_SYSTEM: Recombinant Rhinovirus 3C protease serotype 14 (Human rhinovirus 14, UniProt P03303)
- Construct: Recombinant Rhinovirus 3C proteases from serotypes 14, 16, and 2
- Sequence (P03303 1538-1719): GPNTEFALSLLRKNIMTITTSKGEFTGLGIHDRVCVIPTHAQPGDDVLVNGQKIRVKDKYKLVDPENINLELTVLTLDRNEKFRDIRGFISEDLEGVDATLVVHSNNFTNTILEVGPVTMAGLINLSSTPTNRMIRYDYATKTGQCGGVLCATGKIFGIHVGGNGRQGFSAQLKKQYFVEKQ
- EXPERIMENT: Inhibition of Rhinovirus Protease (FRET assay), serotype 14
pKi: −log10 of the molar value.
MEASURE_NAME: pKi

Q) So what does the record say about pKi for CC(C)CC(NC(=O)SCc1ccccc1)C(=O)CC(Cc1ccccc1)C(=O)NC(C=CC(=O)N1CCc2ccccc21)CCC(N)=O (stereo not shown) ?
A) < 5.15

====

- TARGET_OR_SYSTEM: Recombinant Rhinovirus 3C protease serotype 14 (Human rhinovirus 14, UniProt P03303)
- Construct: Recombinant Rhinovirus 3C proteases from serotypes 14, 16, and 2; made in house
- EXPERIMENT: Inhibition of Rhinovirus Protease (FRET assay), serotype 14
- Assay type: biochemical, human rhinovirus (HRV) serotype 14
- COND: RVP serotype-14; enzyme start progress curves
Kindly state kobs/I for each of the entries shown.

Q) State the recorded kobs/I for this entry: CC(C)C(NC(=O)SC1CCCC1)C(=O)CC(Cc1ccc(F)cc1)C(=O)NC(C=CC(=O)OCCO)CCC(N)=O (stereo not shown)
A) 281,000 M^−1sec^−1

Q) Return reported kobs/I; argument: CC(C)C(NC(=O)SC(C)(C)C)C(=O)CC(Cc1ccc(F)cc1)C(=O)NC(C=CC(=O)OCc1cccnc1)CCC(N)=O (stereo not shown)
A) 58,000 M^−1sec^−1

Q) Field request: kobs/I | item: CCOC(=O)/C=C/C(CCC(N)=O)NC(=O)C(CC(=O)C(CC(C)C)NC(=O)OCc1ccccc1)Cc1ccccc1 (stereo not shown)
A) 17,380 M^−1sec^−1

Q) // lookup kobs/I for CC(C)C(NC(=O)C1SCCS1)C(=O)CC(Cc1ccc(F)cc1)C(=O)NC(C=CC(=O)OCc1cccnc1)CCC(N)=O (stereo not shown)
A) 292,000 M^−1sec^−1

Data credit: patent US6649639B2
